Molecular target: Hb (Homo sapiens)
Sequence (P69905 2-142 limits assumed): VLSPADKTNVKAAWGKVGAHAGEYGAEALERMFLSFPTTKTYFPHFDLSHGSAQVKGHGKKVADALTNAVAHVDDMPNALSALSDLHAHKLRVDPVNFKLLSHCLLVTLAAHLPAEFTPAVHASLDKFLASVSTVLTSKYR
Sequence (P68871 2-147 partner limits assumed): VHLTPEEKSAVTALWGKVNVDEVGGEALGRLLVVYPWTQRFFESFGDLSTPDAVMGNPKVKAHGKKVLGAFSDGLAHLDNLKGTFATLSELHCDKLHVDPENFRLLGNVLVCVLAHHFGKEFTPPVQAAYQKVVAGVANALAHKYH
Test: Drug partitioning studies, fixed and unfixed Hb adducts in non-sickling AA blood
Assay type: cell-based
Design: Hemoglobin modification, studies using non-sickling AA blood; from tissue; host or cells: non-sickling (AA) human blood, red blood cells
Conditions: 2 mM, 6 biological replicates
Property: Unfixed Adduct (%); scope: individual compounds
The answer is to be given in %; state only the numeric part.

Reference set, count: 5
{"Compound": "COc1ccc(OCc2ccccn2)c(C=O)c1 [INN-310, reference compound]", "Unfixed Adduct (%)": 79.7}
{"Compound": "O=Cc1c(O)cccc1OCc1ncccn1", "Unfixed Adduct (%)": 87.7}
{"Compound": "O=Cc1c(O)cccc1OCc1ccncc1", "Unfixed Adduct (%)": 60.0}
{"Compound": "O=Cc1c(O)cccc1OCc1cncnc1", "Unfixed Adduct (%)": 96.3}
{"Compound": "O=Cc1c(O)cccc1OCc1ccccn1", "Unfixed Adduct (%)": 96.3}

Turning to the following compound.
Data request: Using the record for `O=Cc1c(O)cccc1OCc1ncccc1Cl` , report its Unfixed Adduct (%).
Data returned: 84.8

* * *

Assay: Single-dose oral pharmacokinetics in rats
Assay type: in vivo, Sprague Dawley rats
Conditions: Sprague Dawley, rat; single oral dose 100 mg/kg, male rats, whole blood
Label satisfied when half-life is strictly below 8 h; otherwise label not satisfied.

{"Compound": "O=Cc1c(O)cccc1OCc1ncccc1F", "Discrete Label": "not satisfied"}
{"Compound": "O=Cc1c(O)cccc1OCc1cccnc1", "Discrete Label": "satisfied"}

Data request: A record lists `O=Cc1c(O)cccc1OCc1ccccn1` . Is its half-life below 8 h?
Data returned: not satisfied

Data request: A record lists `O=Cc1c(O)cccc1OCc1cncnc1` . Is its half-life below 8 h?
Data returned: satisfied

Data request: A record lists `O=Cc1c(O)cccc1OCc1ncccc1Cl` . Is its half-life below 8 h?
Data returned: not satisfied

Data request: A record lists O=Cc1c(O)cccc1OCc1cccc(CO)n1 [VZHE-039, reference compound] . Is its half-life below 8 h?
Data returned: not satisfied

Data request: A record lists `O=Cc1c(O)cccc1OCc1cncc(F)c1` . Is its half-life below 8 h?
Data returned: satisfied

* * *

Molecular target: UniProtKB P69905
Assay: Drug partitioning studies, fixed and unfixed Hb adducts in non-sickling AA blood
Format: cell-based
Parameters: Hemoglobin modification, studies using non-sickling AA blood; from tissue; host or cells: non-sickling (AA) human blood, red blood cells
Conditions: 2 mM, 6 biological replicates
Reported Metric: Fixed Adducts (%)

Reference set, count: 6
{"Compound": "O=Cc1c(O)cccc1OCc1cccnc1F", "Fixed Adducts (%)": "67.3 ± 12.1%"}
{"Compound": "O=Cc1c(O)cccc1OCc1cncc(F)c1", "Fixed Adducts (%)": "85.9 ± 7.1%"}
{"Compound": "COc1ccc(OCc2ccccn2)c(C=O)c1 [INN-310, reference compound]", "Fixed Adducts (%)": "82.0 ± 3.1%"}
{"Compound": "O=Cc1c(F)cc(F)cc1OCc1ccccn1", "Fixed Adducts (%)": "72.7 ± 4.1%"}
{"Compound": "O=Cc1c(O)cccc1OCc1ncccc1Cl", "Fixed Adducts (%)": "85.6 ± 2.5%"}
{"Compound": "O=Cc1c(O)cccc1OCc1ncccn1", "Fixed Adducts (%)": "88.2 ± 2.1%"}

Data request: Using the record for CC(C)n1nccc1-c1ncccc1COc1cccc(O)c1C=O [Voxelotor, reference compound] , report its Fixed Adducts (%).
Data returned: 77.0 ± 3.8%

Data request: Using the record for `O=Cc1c(O)cccc1OCc1ccccn1` , report its Fixed Adducts (%).
Data returned: 95.2 ± 2.3%

Data request: Using the record for `O=Cc1c(O)cccc1OCc1ncccc1F` , report its Fixed Adducts (%).
Data returned: 93.1 ± 3.3%

Data request: Using the record for `O=Cc1c(O)cccc1OCc1cccnc1` , report its Fixed Adducts (%).
Data returned: 96.0 ± 1.9%

Data request: Using the record for `O=Cc1c(O)cccc1OCc1ccncc1` , report its Fixed Adducts (%).
Data returned: 60.1 ± 3.0%

Data request: Using the record for `O=Cc1c(O)cccc1OCc1cncnc1` , report its Fixed Adducts (%).
Data returned: 94.8 ± 2.8%

Data request: Using the record for `O=Cc1c(O)cccc1OCc1cccnc1Cl` , report its Fixed Adducts (%).
Data returned: 59.6 ± 5.7%

Data request: Using the record for `COC(=O)c1ccc(COc2cccc(O)c2C=O)cn1` , report its Fixed Adducts (%).
Data returned: 96.1 ± 1.1%

Data request: Using the record for `O=Cc1c(OCc2cccnc2)ccc(F)c1O` , report its Fixed Adducts (%).
Data returned: 80.4 ± 9.1%

Data request: Using the record for O=Cc1c(O)cccc1OCc1cccc(CO)n1 [VZHE-039, reference compound] , report its Fixed Adducts (%).
Data returned: 90.9 ± 3.4%

Data request: Using the record for `O=Cc1c(F)cc(F)cc1OCc1ncccc1F` , report its Fixed Adducts (%).
Data returned: 80.7 ± 4.8%

Data request: Using the record for COc1ccc(OCc2cccc(CO)n2)c(C=O)c1 [TD-7, reference compound] , report its Fixed Adducts (%).
Data returned: 80.9 ± 2.5%
